Field: Plant response rating (scale 0 to 100), Ragweed. Provide a value for each of the compounds that follow.
Test system: ragweed (common ragweed, Ambrosia elatior)
Assay: Test D pre-/postemergence plant response
Type: in vivo
Conditions: Preemergence, 125 g ai/ha
Response field accepts a number only; no unit should be typed.

Lookup: Given the compound `Fc1cccc(Oc2ncc(Br)cn2)c1-c1cc(C(F)F)on1` , what is its reported Plant response rating (scale 0 to 100), Ragweed?
Found: 85

Lookup: How about `Fc1ccc(Oc2ncc(Cl)cn2)c(-c2cc(C(F)F)on2)c1F` ?
Found: 90

Lookup: Next up: `Cc1cc(-c2c(F)cccc2Oc2ncc(Cl)cn2)on1`
Found: 95

Lookup: Field entry: `FC(F)(F)c1cc(-c2ccccc2Oc2ncc(Cl)cn2)ncn1`
Found: 35

Lookup: Try the compound `FC(F)c1cc(-c2c(Cl)cccc2Oc2ncc(Cl)cn2)on1`
Found: 100

Lookup: Same read-out for `FCc1cc(-c2c(F)cccc2Oc2ncc(Cl)cn2)no1` ?
Found: 100

###

Tested on: velvetleaf (Abutilon theophrasti)
Assay: Test F pre-/postemergence plant response
Type: in vivo
Conditions: Abutilon theophrasti, pre-emergence; 31 g ai/ha Preemergence; scale 0 to 100; read-out: Plant response rating, Velvetleaf
measured.endpoint: pest or weed control at 31 g/ha
Give the value; after it, write the unit.

Lookup: So what does the record say about pest or weed control at 31 g/ha for `FC(F)c1cc(-c2ccccc2Oc2ncc(Cl)cn2)on1` ?
Found: 90%

Lookup: Could you do the same for `Fc1cccc(Oc2ncc(Cl)cn2)c1-c1cc(C(F)F)no1` , please?
Found: 100%

Lookup: What do you have for `Fc1cccc(Oc2ncc(Br)cn2)c1-c1cc(C(F)F)no1` ?
Found: 98%

Lookup: Can you check `Fc1cccc(Oc2ncc(Cl)cn2)c1-c1cc(C(F)F)on1` next?
Found: 100%

###

System: waterhemp (common waterhemp, Amaranthus rudis)
Test: Test D pre-/postemergence plant response
Type: in vivo
Conditions: Postemergence, 16 g ai/ha
Consider the following compounds; for each one, report its Plant response rating (scale 0 to 100), Waterhemp.
Number only, no unit.

Lookup: Look up Plant response rating (scale 0 to 100), Waterhemp for this compound: `Cc1cc(-c2c(F)cccc2Oc2ncc(Cl)cn2)on1`
Found: 60

Lookup: What would you report for `FCc1cc(-c2ccccc2Oc2ncc(Cl)cn2)on1` ?
Found: 70

Lookup: Then `Clc1cnc(Oc2ccccc2-c2cc(Cl)sn2)nc1` ?
Found: 20

Lookup: Another: `CC(F)(F)c1cc(-c2ccccc2Oc2ncc(Cl)cn2)no1`
Found: 80

Lookup: Now this one: `N#Cc1cccc(Oc2ncc(Cl)cn2)c1-c1cc(C(F)F)on1`
Found: 40

###

Tested on: giant foxtail (Setaria faberii)
Test: Test D pre-/postemergence plant response
Format: in vivo
Conditions: Setaria faberi, post-emergence; Postemergence, 31 g ai/ha; scale 0 to 100 (0 no effect, 100 complete control); read-out: Foxtail, Giant plant response rating
I'd appreciate it if you could supply pest or weed control at 31 g/ha values for the items below.
Numbers only here, please. The scale is %.

Lookup: What measured pest or weed control at 31 g/ha is associated with Fc1cccc(Oc2ncc(Br)cn2)c1-c1cc(C(F)F)no1 [Compound 145] on giant foxtail (Setaria faberii)?
Found: 10

Lookup: Same lookup for FC(F)(F)c1cc(-c2ccccc2Oc2ncc(Cl)cn2)on1 [Compound 63] , please.
Found: 5

Lookup: Can you check FC(F)c1cc(-c2ccccc2Oc2ncc(Cl)cn2)on1 [Compound 53] next?
Found: 20

Lookup: Lookup FC(F)c1cc(-c2ccccc2Oc2ncc(Cl)cn2)no1 [Compound 35]
Found: 10

Lookup: Would you kindly repeat that for FC(F)(F)c1cc(-c2ccccc2Oc2ncc(Cl)cn2)no1 [Compound 200] ?
Found: 20

Lookup: Could you do the same for FC(F)c1cc(-c2ccccc2Oc2ncc(Br)cn2)no1 [Compound 62] , please?
Found: 25
